Data provenance: PubChem BioAssay (NCI)

Tested on: SF-295 CNS
Assay: NCI tumour cell line growth inhibition, 48 h
property.label: GI50

IN: Fill in: GI50 of `CCOC(=O)C#Cc1c(C(=O)OCC)nnn1Cc1ccc(C(F)(F)F)cc1` is ___
OUT: 17.5 µM

IN: And then C1CCC(C(CC2CCCCN2)C2CCCCC2)CC1 (centres undefined) , what is it?
OUT: 1.73 µM

IN: Now give it for `COC(=O)CCC1=C(C)C(C)=N/C1=C\c1[nH]c(-c2ccc[nH]2)cc1OC` too.
OUT: 0.724 µM

IN: Follow-up entry: `Oc1cc(Cn2cnc3c(Cl)nc(Cl)nc32)ccc1C12CC3CC(CC(C3)C1)C2`
OUT: 20.5 µM

====

For each of the molecules below, state its log10 of TGI.
Tested on: OVCAR-5 ovarian
Test: NCI tumour cell line growth inhibition, 48 h
Base-10 log of TGI, unit µM.

IN: What log10 of TGI appears in the records for this molecule with OVCAR-5 ovarian? CC1[C@@H]2CC=C3C4CCC5Cc6nc7c(nc6C[C@@]5(C)C4CC(=O)[C@]32CO[C@@]1(O)C(O)CC(C)(C)O)CC1CCC2C3=C[C@H]4O[C@@]5(O[C@@](C)(CO)C[C@@H]5O)C(C)[C@@]4(O)[C@]3(C)[C@@H](O)CC2[C@]1(C)C7 (some centres undefined)
OUT: -1.20

IN: Same question, `C=C1C(=O)O[C@H]2[C@H]1CC/C(COC(=O)NCc1c[nH]c3ccc(Br)cc13)=C\CC[C@@]1(C)O[C@@H]21` this time
OUT: 0.58

IN: Please give the result for `Cc1ccc(S(=O)(=O)/N=C(\NO)Nc2ccc(Cl)c(Cl)c2)cc1` too.
OUT: 1.10

IN: How about this molecule: CC/C=C/c1cc2c(c3[nH]ccc13)[C@@H](C)CC2C (some centres undefined) (tested in a mixture with another compound)
OUT: 1.53

IN: Similarly, `Cc1n(Cc2ccc3ccccc3c2)c2ccccc2[n+]1Cc1ccc2ccccc2c1` ?
OUT: 0.45

IN: And what about the molecule CC1CN=C(c2cccc(-c3ccc(-c4ccccc4)o3)c2)N1 (centres undefined) ?
OUT: 0.73

IN: Moving on to `CCOC(=O)c1c(SCCCN2CCCCC2)n(-c2ccccc2)c(=S)n(-c2ccccc2)c1=O`
OUT: 1.53

IN: Could you do the same for `C/C(=N\NC(=S)N1CCN(c2ccccn2)CC1)c1cccc(C)n1` , please?
OUT: 1.12

====

Test system: ACHN renal
Assay: NCI tumour cell line growth inhibition, 48 h
property.label: TGI (µM)
Response body: numeric value in µM, unit text excluded.

IN: Given the molecule CCC(C)C1=NC(C(=O)N/C=C\c2c[nH]c3cc(Br)c(Br)cc23)(C(C)C)NC1=O (centres undefined) , what is its reported TGI?
OUT: 39.6

IN: `CNC[C@@H](NC(=O)c1ccc(-c2nc([C@H]3CC[C@H](O)[C@@H](F)C3)cnc2N)cc1F)c1cc(F)cc(Br)c1` , same question.
OUT: 29.1

IN: Now try `CNCCC/C=C1\c2cc3c(cc2-c2c1c1cc(OC)c(OC)cc1c(=O)n2C)OCO3` .
OUT: 1.04

IN: Can you check `CC(C)c1nc(Cl)nc(Cl)c1Cl` next?
OUT: 1.85

====

So I've got a bunch of compounds here, and I need their GI50 values.
Test system: 786-0 renal
Assay: NCI tumour cell line growth inhibition, 48 h

IN: What does the data say about its GI50? Entry: `O=C(c1cccs1)c1c(C(F)(F)F)n([O-])c2ccc(Cl)cc2[n+]1=O`
OUT: 0.0362 µM

IN: How about this compound: O=C1C=C2C(=CCOC2O)O1 (centres undefined)
OUT: 2.67 µM

IN: Next record, please: `COC(=O)[C@]12CC[C@@H](C(=O)/C=C/c3cccnc3)[C@@H]1[C@H]1CC[C@@H]3[C@@]4(C)C/C(=C/c5cccnc5)C(=O)C(C)(C)[C@@H]4CC[C@@]3(C)[C@]1(C)CC2`
OUT: 0.374 µM

IN: Now consider `Cc1cnc(NC2CCOCC2)nc1-n1cnc(C(=O)N[C@H](CN)c2cc(F)cc(Cl)c2)c1` and answer again.
OUT: 1.49 µM

IN: Next record, please: C=C1C(C(O)C[C@H](C)C2O[C@@]3(CCCCO3)CCC2C)O[C@@H]2CCC3(CCC(/C=C/[C@@H](C)C4CC(C)=CC5(O4)O[C@H](C[C@](C)(O)C(=O)O)CCC5O)O3)OC2[C@@H]1O (some centres undefined)
OUT: 0.0108 µM

IN: Repeat for the following compound: `CC(C)CC(=O)[O-].N.N.N.N.N.[Co+3].[O-][Cl+3]([O-])([O-])[O-]`
OUT: > 100 µM

IN: Let us now turn to `NC(=O)c1cc(Cl)ccc1NC(=O)COc1ccccc1`
OUT: 9.54 µM

IN: Query `Nc1c(C(=O)c2cccc(-c3ccncc3)c2)cnn1-c1ccc(F)cc1` next
OUT: > 25 µM

IN: Try `CCN1C2=C(SC(=S)C1=C1SC(C(=O)OC)=C(C(=O)OC)S1)SC(=Nc1ccc(OC)cc1)C2=O` next.
OUT: 1.8 µM

====

Would you kindly list TGI for each of these compounds?
Test system: SK-MEL-2 melanoma
Experiment: NCI tumour cell line growth inhibition, 48 h

IN: Looking for the measured TGI of `CCCCCCCCCCCCCCCC[N+](C)(C)Cc1ccc(F)cc1` , can you help?
OUT: 2.82 µM

IN: // next record `NC(N)=NS(=O)(=O)c1ccc(NC(=O)c2cccc3cc4ccccc4nc23)cc1`
OUT: > 100 µM

IN: Entry to check: `CC(C)CNC(=O)c1ccc(NC(=O)N(CC(C)C)C(=O)c2ccc(N)c(OCCCN)c2)c(OCCCN=C(N)N)c1`
OUT: > 62.5 µM

IN: One more compound: CC1(C=O)C(=O)CCC2(C)C3CC(=O)OC3CCC12 (stereo not given)
OUT: > 100 µM

IN: Check `N#Cc1c(N)c2c(c(-c3ccccc3)c1-c1ccccc1)C(=O)N(NC(=S)Nc1ccccc1)C2=O` too.
OUT: > 100 µM

IN: Another compound to check: `O=[N+]([O-])c1ccc2c3c1[C@H]1O[C@H]1c1cccc(c1-3)[C@@H]1O[C@H]21`
OUT: > 100 µM

IN: Cool, now `Nc1ccc(C(=O)N/C(=C\c2cccc([N+](=O)[O-])c2)c2nc3ccccc3[nH]2)cc1`
OUT: > 100 µM

IN: Same thing, different compound: `Cc1ccc2cc3cccc(C(=O)NCCN(C)C)c3nc2c1`
OUT: 3.55 µM

IN: Would you mind doing `O=Cc1cn(CCCCCn2cc(C=O)c3ccccc32)c2ccccc12` as well?
OUT: > 100 µM

IN: Item: `O=C1C=C(Nc2cccnc2)c2ccccc2C1=O`
OUT: 25.1 µM

====

Test system: HOP-92 NSCLC
Assay: NCI tumour cell line growth inhibition, 48 h
I'd appreciate it if you could supply TGI values for the items below.
Please state the figure in µM; there is no need to write the unit.

IN: Which value of TGI has been reported for `CCCCCCCCCCCCCC(=S)N/C=C/OC` in the records?
OUT: 74.5

IN: Let us now turn to `Cc1ccc(S(=O)(=O)/N=C(\NO)Nc2ccc(Cl)c(Cl)c2)cc1`
OUT: 11.8

IN: Also need COC(=O)C(C)(C)NC(=O)C(Cc1ccccc1)Nc1ncnc2c1ncn2-c1ccc(OC)cc1 (centres undefined) , thanks.
OUT: 58.2

IN: Moving on to the next compound: `C/C(=C\C(=N\N=C(N)N)c1ccc(Cl)cc1)c1ccc(Cl)cc1`
OUT: 2.31

IN: For `CCOC(=O)c1c(SCCCN2CCCCC2)n(-c2ccccc2)c(=S)n(-c2ccccc2)c1=O` then?
OUT: 29.1

IN: Again, but for `Cc1n(Cc2ccc3ccccc3c2)c2ccccc2[n+]1Cc1ccc2ccccc2c1`
OUT: 2.06

IN: // next record `NC(=O)c1ccc(NCC2=CC(=O)C=CC2=O)cc1`
OUT: 40.7

IN: Same thing, different compound: `S=C1Cc2cc3ccccc3nc2-c2ccccc2N1`
OUT: 20.2

IN: Now the same for `N=C(N)c1ccc(-c2ccc(-c3cccs3)o2)cc1`
OUT: 3.1

IN: What about this compound? CN1C(=O)C23CC4(C56CC78SSC(CO)(C(=O)N7C5Nc5ccccc56)N(C)C8=O)c5ccccc5NC4N2C(=O)C1(CO)SS3 (centres undefined)
OUT: 0.461

IN: Another compound to check: `COc1cccc(-n2ncc3c(N/N=C/c4cccc(F)c4)ncnc32)c1`
OUT: 14.2

IN: Proceed to `COc1ccc2[nH]c(=O)c(/C=C/C(=O)c3ccccc3OC)cc2c1`
OUT: 6.17

IN: Let us now turn to `Cc1nc2c(nc1C)C(=O)C1=C(C2=O)C2C=CC1CC2`
OUT: 4.48

IN: Same question for `CCN1C2=C(SC(=S)C1=C1SC(C(=O)OC)=C(C(=O)OC)S1)SC(=Nc1ccc(OC)cc1)C2=O` please.
OUT: 26.1

IN: Param item: C=C(C)C12OC3(c4ccccc4)OC1C1C4OC4(CO)C(O)C4(O)C(=O)C(C)=CC4C1(O3)C(C)C2OC(=O)/C=C/C=C/c1ccccc1 (centres undefined)
OUT: 0.836

IN: And then `O=[N+]([O-])c1ccc2c3c1[C@H]1O[C@H]1c1cccc(c1-3)[C@@H]1O[C@H]21` , what is it?
OUT: 5.03

IN: Okay, and Cc1c2cccc(Sc3ccccc3)c2c2c3c(cccc13)[S+](c1ccccc1)C2 (centres undefined) ?
OUT: 6.6

IN: What do we get for `COc1cc(/C=C\c2cc(/C=C\c3ccc(O)c(OC)c3)n(C(=O)COc3ccccc3)n2)ccc1O` ?
OUT: 20.4

IN: Request: CC(C)=C[C@@H]1C[C@H](C)[C@H]2CC[C@H](C)c3c(O)c(OC4OCC(O)C(O)C4O)c(C)c1c32 (some centres undefined)
OUT: 24.7

IN: Let us now turn to `CCCCc1ccc(N2C(=O)c3cc([N+](=O)[O-])cnc3S2(=O)=O)cc1`
OUT: 8.03
